Data origin, for the record: patent US20240018502A1

biological target: proteinase-activated receptor 2 (PAR-2) (UniProt P55085); test: cell-based or functional assay
Sequence (P55085 37-397 limits assumed): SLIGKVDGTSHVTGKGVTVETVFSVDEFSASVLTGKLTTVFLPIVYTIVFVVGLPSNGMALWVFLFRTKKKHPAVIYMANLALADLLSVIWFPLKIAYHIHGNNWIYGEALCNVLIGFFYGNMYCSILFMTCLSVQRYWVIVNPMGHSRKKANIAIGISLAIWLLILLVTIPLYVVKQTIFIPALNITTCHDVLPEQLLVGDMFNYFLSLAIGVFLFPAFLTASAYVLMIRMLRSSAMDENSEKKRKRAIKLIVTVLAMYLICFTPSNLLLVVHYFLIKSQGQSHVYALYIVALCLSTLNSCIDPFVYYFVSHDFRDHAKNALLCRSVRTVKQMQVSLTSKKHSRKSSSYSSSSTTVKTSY
ENDPOINT_NAME: PAR-2 Cell Based Assay ED50 (nM)
Record the value in nM, omitting the unit from your answer.

Could you tell me which PAR-2 Cell Based Assay ED50 is on file for Q38H/I41A/D60bV/F60eR/Y60gW/F97T/ins97aE/T98G/F99L/C122S/G151N/Q175L/Q192D (enzyme) VVGGTDADEGEWPWQVSLHALGHGHACGASLISPNWLVSAAHCYIDVRGRRWSDPTQWTAFLGLHDQSQRSAPGVQERRLKRIISHPFFNDTEGLDYDIALLELEKPAEYSSMVRPISLPDASHVFPAGKAIWVTGWGHTQYGGTNALILQKGEIRVINQTTCENLLPQLITPRMMCVGFLSGGVDSCDGDSGGPLSSVEADGRIFQAGVVSWGDGCAQRNKPGVYTRLPLFRDWIKENTGV ?
690

Similarly, Q38H/I41S/D60bT/F60eS/Y60gW/D96K/F97D/ins97aA/T98P/F99L/C122S/G151H/Q175L/Q192D (enzyme) VVGGTDADEGEWPWQVSLHALGHGHSCGASLISPNWLVSAAHCYIDTRGSRWSDPTQWTAFLGLHDQSQRSAPGVQERRLKRIISHPFFNKDAPLDYDIALLELEKPAEYSSMVRPISLPDASHVFPAGKAIWVTGWGHTQYGGTHALILQKGEIRVINQTTCENLLPQLITPRMMCVGFLSGGVDSCDGDSGGPLSSVEADGRIFQAGVVSWGDGCAQRNKPGVYTRLPLFRDWIKENTGV ?
420

Similarly, Q38H/I41A/D60bT/F60eK/Y60gW/F97T/ins97aE/T98G/F99L/C122S/G151H/Q175L/Q192D (enzyme) VVGGTDADEGEWPWQVSLHALGHGHACGASLISPNWLVSAAHCYIDTRGKRWSDPTQWTAFLGLHDQSQRSAPGVQERRLKRIISHPFFNDTEGLDYDIALLELEKPAEYSSMVRPISLPDASHVFPAGKAIWVTGWGHTQYGGTHALILQKGEIRVINQTTCENLLPQLITPRMMCVGFLSGGVDSCDGDSGGPLSSVEADGRIFQAGVVSWGDGCAQRNKPGVYTRLPLFRDWIKENTGV ?
560

Similarly, Q38H/I41A/D60bT/F60eK/Y60gW/F97T/ins97aE/T98G/F99L/C122S/G151N/Q175L/Q192D (enzyme) VVGGTDADEGEWPWQVSLHALGHGHACGASLISPNWLVSAAHCYIDTRGKRWSDPTQWTAFLGLHDQSQRSAPGVQERRLKRIISHPFFNDTEGLDYDIALLELEKPAEYSSMVRPISLPDASHVFPAGKAIWVTGWGHTQYGGTNALILQKGEIRVINQTTCENLLPQLITPRMMCVGFLSGGVDSCDGDSGGPLSSVEADGRIFQAGVVSWGDGCAQRNKPGVYTRLPLFRDWIKENTGV ?
1900

Similarly, Q38H/I41S/D60bT/F60eS/Y60gW/F97D/ins97aV/T98P/F99L/C122S/G151H/Q175L/Q192D (enzyme) VVGGTDADEGEWPWQVSLHALGHGHSCGASLISPNWLVSAAHCYIDTRGSRWSDPTQWTAFLGLHDQSQRSAPGVQERRLKRIISHPFFNDDVPLDYDIALLELEKPAEYSSMVRPISLPDASHVFPAGKAIWVTGWGHTQYGGTHALILQKGEIRVINQTTCENLLPQLITPRMMCVGFLSGGVDSCDGDSGGPLSSVEADGRIFQAGVVSWGDGCAQRNKPGVYTRLPLFRDWIKENTGV ?
640

Similarly, I41R/F97T/Ins97aE/T98G/F99L/C122S/G151N/Q175L/Q192E (enzyme) VVGGTDADEGEWPWQVSLHALGQGHRCGASLISPNWLVSAAHCYIDDRGFRYSDPTQWTAFLGLHDQSQRSAPGVQERRLKRIISHPFFNDTEGLDYDIALLELEKPAEYSSMVRPISLPDASHVFPAGKAIWVTGWGHTQYGGTNALILQKGEIRVINQTTCENLLPQLITPRMMCVGFLSGGVDSCEGDSGGPLSSVEADGRIFQAGVVSWGDGCAQRNKPGVYTRLPLFRDWIKENTGV ?
2600
